Taken from PubChem BioAssay (NCI).

For each record, write down the corresponding TGI.
Tested on: UACC-62 melanoma
method-summary: NCI tumour cell line growth inhibition, 48 h
Where a SMILES comes first, the peptide text is derived from it. [ ]: non-standard residue; d: D form.

Cc1ccsc1/C=N/Nc1cc(C)c2ccccc2n1; 26.6 µM

Need TGI for each of these compounds.
1. COc1ccc(/N=N/C(=NNC(=O)c2ccc(C)cc2)c2ccc(N(C)C)cc2)cc1
2. CC1=C(C(=O)NCc2ccccc2)C(c2ccco2)C(C(=O)NCc2ccccc2)=C(C)N1
3. O=C1c2cc3ncsc3cc2C(=O)c2c(O)ccc(O)c21
4. O=C(CCc1cc(-c2ccc(F)cc2)n[nH]1)N(Cc1ccccc1)Cc1ccccc1
5. Nc1c(C(=O)O)nnc2cc(Cl)ccc12

Solution:
1: > 83.1 µM; 2: 50.6 µM; 3: > 100 µM; 4: > 100 µM; 5: > 100 µM

Below is a list of compounds. For each, state its recorded TGI.
1. C=C1C(=O)OC2(C)CCC1CC1OC1(C)CCC=C(C)CCC2O (stereo not given)
2. CSCC[C@H](NC(=O)[C@@H](N)CC(N)=O)C(=O)N[C@@H](Cc1c[nH]c2ccccc12)C(=O)N[C@@H](CCC(N)=O)C(=O)N[C@@H](CCC(=O)O)C(=O)N[C@H](C(=O)NCC(=O)N[C@@H](CCCCN)C(=O)N[C@H](C)C(=O)O)C(C)C (H-NMWQEVGK[dA]-OH)
3. Cc1ccc2c(c1)Nc1ccccc1P2(=O)O
4. CC1=NN(c2nc(N)nc(-c3cc4ccccc4oc3=N)n2)C(C)(C)C1
5. CC1OC(=O)N2CCC=CC12 (stereo not given)
6. CCOC(=O)C1CCCN1C(=O)c1ccccc1Cl (stereo not given)
7. NC1=Nc2ccccc2Sc2ccccc21

Solution:
1: > 100 µM; 2: > 100 µM; 3: > 100 µM; 4: 34.1 µM; 5: > 100 µM; 6: 88.3 µM; 7: > 100 µM

Give TGI for all compounds that follow.
1. CC(C)(CO)CNc1cc(Cl)nc(N)n1
2. O=C1Nc2ccccc2SC1=C(C(=O)c1ccccc1)C(=O)c1ccccc1
3. Oc1ccc(O)c(-n2cccn2)c1-n1cccn1
4. CC1CN=C(c2ccc(CN3CCC(CCCC4CCN(Cc5ccc(C6=NCC(C)N6)cc5)CC4)CC3)cc2)N1 (stereo not given)
5. CC(=O)OC1=C(CC(C)(C)C)C(=O)c2ccccc2C1=O
6. CC/C(C)=C1\CCC(CN(C)C)C1=O (stereo not given)
7. COc1ccc(F)cc1-c1ccnc2[nH]c(C3=CCN(C4CCC(CC(=O)O)CC4)CC3)cc12 (stereo not given)
8. COC(=N)CCCl

Solution:
1. > 100 µM
2. 51.6 µM
3. > 100 µM
4. > 100 µM
5. > 100 µM
6. > 100 µM
7. 0.371 µM
8. > 100 µM

Provide TGI values for the following items, in order.
1. CSc1c(C)n([O-])c2cc(Cl)c(Cl)cc2[n+]1=O
2. Cc1c(Cl)cccc1NC(=O)C(=O)c1c(O)c2ccc(O)cc2oc1=O
3. CC1=CC(=O)N2C(OC[C@@H]2c2ccccc2)O1 (stereo not given in full)
4. O=C1/C(=C/c2ccc(O)cc2)Oc2ccccc21

Solution:
1: 28.9 µM; 2: > 100 µM; 3: > 100 µM; 4: > 100 µM
